Sourced from patent EP0908457B1

tested on: Cyperus iria; test: Preemergence weed control under flooded paddy conditions, CYPIR (Rice Flatsedge); format: in vivo; conditions: Rate 0.2500 kg/ha; preemergence, flooded paddy; rated three to four weeks after treatment
MEASUREMENT NAME: CYPIR herbicidal effect rating

> print(dat)
                                    molecule  measured.value
 1  C#CCOC(=O)COc1ccc(-c2nsc3ccc(-n4c(=O)cc(C(F)(F)F)n(C)c4=O)cc23)cc1             4.0
 2  Cc1ccc(OCC(=O)NS(=O)(=O)c2sc(C)nc2C)c(-c2nsc3ccc(-n4c(=O)cc(C(F)(F)F)n(C)c4=O)cc23)c1             6.0
 3  CO/N=C/c1nsc2ccc(-n3c(=O)cc(C(F)(F)F)n(C)c3=O)cc12             9.0
 4  Cn1c(C(F)(F)F)cc(=O)n(-c2ccc3snc(C=C(Br)Br)c3c2)c1=O             9.0
 5  Cc1ccc(OCC(=O)NS(=O)(=O)c2sc3ccc(Cl)cc3c2C)c(-c2nsc3ccc(-n4c(=O)cc(C(F)(F)F)n(C)c4=O)cc23)c1             6.0
 6  CC(C)=CCOCc1nsc2ccc(-n3c(=O)cc(C(F)(F)F)n(C)c3=O)cc12             7.0
 7  CC(OCc1nsc2ccc(-n3c(=O)cc(C(F)(F)F)n(C)c3=O)cc12)C(F)(F)F (centres unmarked)             9.0
 8  C=C(C)C1CC=C(COCc2nsc3ccc(-n4c(=O)ccn(C)c4=O)cc23)CC1 (centres unmarked)             4.0
 9  COC(=O)COc1ccc(C)cc1-c1noc2ccc(-n3c(=O)cc(C(F)(F)F)n(C)c3=O)c(Cl)c12             2.0
10  C=CCOc1nc(C(F)(F)F)cc(=O)n1-c1ccc2snc(-c3cc(C)ccc3OC)c2c1             0.0
11  C#CCn1c(C(F)(F)F)cc(=O)n(-c2ccc3snc(C)c3c2)c1=O             0.0
12  Cc1ccc(OCC(=O)NS(=O)(=O)c2c(C)noc2C)c(-c2nsc3ccc(-n4c(=O)cc(C(F)(F)F)n(C)c4=O)cc23)c1             9.0
13  Cn1c(C(F)(F)F)cc(=O)n(-c2ccc3snc(COCC(=O)NS(C)(=O)=O)c3c2)c1=O             9.0
14  COP(=O)(Cc1nsc2ccc(-n3c(=O)cc(C(F)(F)F)n(C)c3=O)cc12)OC             9.0

###

As shown below, each of these molecules has a reported ORYSAT herbicidal effect rating value.
test system: Oryza sativa, (L.) Tebonnet; test: Rice tolerance to post-transplant applications under flooded paddy conditions (Example 187), ORYSAT (Rice, Tebonnet); details: Rate 0.0320 kg/ha, rated three to four weeks after treatment
MEASUREMENT NAME: ORYSAT herbicidal effect rating

> print(dat)
                                    molecule                 measurement.name  measured.value
 1  COC(=O)C(C)Oc1ccc(-c2nsc3ccc(-n4c(=O)cc(C(F)(F)F)n(C)c4=O)cc23)cc1 (centres unmarked) [Example 258]  ORYSAT herbicidal effect rating             2.0
 2  CNC.Cn1c(C(F)(F)F)cc(=O)n(-c2ccc3snc(COCC(=O)O)c3c2)c1=O [Example 296]  ORYSAT herbicidal effect rating             0.0
 3  Cc1ccc(OCC(=O)NS(=O)(=O)c2sc(C)nc2C)c(-c2nsc3ccc(-n4c(=O)cc(C(F)(F)F)n(C)c4=O)cc23)c1 [Example 288]  ORYSAT herbicidal effect rating             0.0
 4  CCOc1ccc2sc(S(=O)(=O)NC(=O)COc3ccc(C)cc3-c3nsc4ccc(-n5c(=O)cc(C(F)(F)F)n(C)c5=O)cc34)nc2c1 [Example 289]  ORYSAT herbicidal effect rating             0.0
 5  COC(=O)COCc1nsc2ccc(-n3c(=O)cc(C(F)(F)F)n(C)c3=O)cc12 [Example 292]  ORYSAT herbicidal effect rating             0.0
 6  Cn1c(C(F)(F)F)cc(=O)n(-c2ccc3snc(/C=C/C=O)c3c2)c1=O [Example 291]  ORYSAT herbicidal effect rating             0.0
 7  CC(=O)/C=C/c1nsc2ccc(-n3c(=O)cc(C(F)(F)F)n(C)c3=O)cc12 [Example 285]  ORYSAT herbicidal effect rating             3.0
 8  Cc1ccc(OCC(=O)NS(=O)(=O)c2c(C)noc2C)c(-c2nsc3ccc(-n4c(=O)cc(C(F)(F)F)n(C)c4=O)cc23)c1 [Example 270]  ORYSAT herbicidal effect rating             4.0
 9  COC(=O)COc1ccc(C)cc1-c1noc2ccc(-n3c(=O)cc(C(F)(F)F)n(C)c3=O)c(Cl)c12 [Example 261]  ORYSAT herbicidal effect rating             0.0
10  Cn1c(C(F)(F)F)cc(=O)n(-c2ccc3snc(C=C(Br)Br)c3c2)c1=O [Example 284]  ORYSAT herbicidal effect rating             0.0
11  COC(=O)/C=C/c1nsc2ccc(-n3c(=O)cc(C(F)(F)F)n(C)c3=O)cc12 [Example 279]  ORYSAT herbicidal effect rating             2.0
12  CC(C)OP(=O)(Cc1nsc2ccc(-n3c(=O)cc(C(F)(F)F)n(C)c3=O)cc12)OC(C)C [Example 263]  ORYSAT herbicidal effect rating             0.0
13  Cn1c(C(F)(F)F)cc(=O)n(-c2ccc3snc(CSCC(=O)O)c3c2)c1=O [Example 283]  ORYSAT herbicidal effect rating             2.0
14  COC(=O)C(C)Oc1c(-c2nsc3ccc(-n4c(=O)cc(C(F)(F)F)n(C)c4=O)cc23)ccc(C)c1C (centres unmarked) [Example 275]  ORYSAT herbicidal effect rating             0.0
15  Cn1c(C(F)(F)F)cc(=O)n(-c2ccc3snc(COCC(=O)O)c3c2)c1=O [Example 293]  ORYSAT herbicidal effect rating             0.0
16  Cn1c(C(F)(F)F)cc(=O)n(-c2ccc3snc(C=C(Cl)Cl)c3c2)c1=O [Example 287]  ORYSAT herbicidal effect rating             0.0
17  Cn1c(C(F)(F)F)cc(=O)n(-c2ccc3snc(-c4ccccc4OCC(=O)NS(C)(=O)=O)c3c2)c1=O [Example 268]  ORYSAT herbicidal effect rating             3.5
18  C#CCOC(=O)COc1ccc(-c2nsc3ccc(-n4c(=O)cc(C(F)(F)F)n(C)c4=O)cc23)cc1 [Example 259]  ORYSAT herbicidal effect rating             1.0
19  Cn1c(C(F)(F)F)cc(=O)n(-c2ccc3snc(/C=N/O)c3c2)c1=O [Example 278]  ORYSAT herbicidal effect rating             2.0
20  Cn1c(C(F)(F)F)cc(=O)n(-c2ccc3snc(CS(=O)(=O)CC(=O)O)c3c2)c1=O [Example 282]  ORYSAT herbicidal effect rating             2.0
21  Cn1c(C(F)(F)F)cc(=O)n(-c2ccc3snc(-c4ccc(OCC(=O)OC(C)(C)C)cc4)c3c2)c1=O [Example 273]  ORYSAT herbicidal effect rating             0.0
22  Cn1c(C(F)(F)F)cc(=O)n(-c2ccc3snc(C(C)(C)C#N)c3c2)c1=O [Example 256]  ORYSAT herbicidal effect rating             6.0
23  Cn1c(C(F)(F)F)cc(=O)n(-c2ccc3snc(C(Br)C#N)c3c2)c1=O (centres unmarked) [Example 264]  ORYSAT herbicidal effect rating             0.0
24  Cn1c(C(F)(F)F)cc(=O)n(-c2ccc3snc(C=C(F)Br)c3c2)c1=O [Example 286]  ORYSAT herbicidal effect rating             0.0
25  Cn1c(C(F)(F)F)cc(=O)n(-c2ccc3snc(COCC(=O)NS(C)(=O)=O)c3c2)c1=O [Example 294]  ORYSAT herbicidal effect rating             0.0
26  Cc1ccc(OCC(=O)OC(C)(C)C)c(-c2noc3ccc(-n4c(=O)cc(C(F)(F)F)n(C)c4=O)c(Cl)c23)c1 [Example 265]  ORYSAT herbicidal effect rating             0.0
